Values were extracted from ChEMBL document CHEMBL4828708.

Catalogue of compounds with associated pKi
Target sequence: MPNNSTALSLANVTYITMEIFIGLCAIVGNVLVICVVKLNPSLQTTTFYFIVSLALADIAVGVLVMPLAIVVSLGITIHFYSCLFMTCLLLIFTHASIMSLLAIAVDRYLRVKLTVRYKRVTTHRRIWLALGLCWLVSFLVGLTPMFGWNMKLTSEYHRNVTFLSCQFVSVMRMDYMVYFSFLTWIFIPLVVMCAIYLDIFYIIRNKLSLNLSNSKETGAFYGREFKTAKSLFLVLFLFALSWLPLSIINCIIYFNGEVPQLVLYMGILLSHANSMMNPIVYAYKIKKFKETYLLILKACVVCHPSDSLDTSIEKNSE
Kindly note that pKi refers to -log10 of the concentration in mol/L and answer with the value alone.

Guide cases for pKi, answers given:
OC[C@H]1O[C@@H](n2cnc3c(NCCCc4ccccc4)ncnc32)[C@H](O)[C@@H]1O	7.26
OC[C@H]1O[C@@H](n2cnc3c(NCCCc4ccccc4)nc(Cl)nc32)C[C@@H]1O	5.06
Nc1nc(CCc2ccccc2)nc2c1ncn2[C@@H]1O[C@H](CO)[C@@H](O)[C@H]1O	5.06
Nc1ncnc2c1nc(C#Cc1ccccc1)n2[C@H]1C[C@H](O)[C@@H](CO)O1	6.06

Return the recorded pKi value; entry: "Nc1nc(C#Cc2ccccc2)nc2c1ncn2[C@@H]1O[C@H](CO)[C@@H](O)[C@@H]1O"
5.91

----------
Listed here: compounds with reported Ki for Adenosine receptor A1 (Homo sapiens).
// unit must come after the numeric part

OC[C@H]1O[C@@H](n2cnc3c(NCCCc4ccccc4)nc(Cl)nc32)C[C@@H]1O	13.3 µM
OC[C@H]1O[C@@H](n2cnc3c(NCCCc4ccccc4)ncnc32)[C@H](O)[C@@H]1O	0.0788 µM

Return the recorded Ki value; entry: "Nc1nc(C#Cc2ccccc2)nc2c1ncn2[C@@H]1O[C@H](CO)[C@@H](O)[C@H]1O"
0.646 µM

Return the recorded Ki value; entry: "CCNC(=O)[C@H]1O[C@@H](n2cnc3c(NCCCCc4ccccc4)ncnc32)[C@H](O)[C@@H]1O"
0.803 µM

----------
- TESTED_ON: Adenosine receptor A2a (Homo sapiens)
- Sequence (P29274 whole entry): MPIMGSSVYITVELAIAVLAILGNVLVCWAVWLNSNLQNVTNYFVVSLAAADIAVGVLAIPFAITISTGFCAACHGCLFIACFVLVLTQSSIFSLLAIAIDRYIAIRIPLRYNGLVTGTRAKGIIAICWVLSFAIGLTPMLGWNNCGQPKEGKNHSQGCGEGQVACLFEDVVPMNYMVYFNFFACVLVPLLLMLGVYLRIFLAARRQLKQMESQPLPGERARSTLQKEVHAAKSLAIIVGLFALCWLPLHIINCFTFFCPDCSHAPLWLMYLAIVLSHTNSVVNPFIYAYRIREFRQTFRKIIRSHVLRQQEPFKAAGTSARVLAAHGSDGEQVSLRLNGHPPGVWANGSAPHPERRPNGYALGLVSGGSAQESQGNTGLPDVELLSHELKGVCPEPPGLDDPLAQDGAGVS
MEASURE: pKi
Kindly note that pKi refers to -log10 of the concentration in mol/L and answer with the value alone.

Return the recorded pKi value; entry: "Nc1nc(C#Cc2ccccc2)nc2c1ncn2[C@@H]1O[C@H](CO)[C@@H](O)[C@H]1O"
5.98

----------
- TESTED_ON: Adenosine receptor A3 (Homo sapiens)
- TEST_DETAILS: Displacement of [3H]NECA from human adenosine A3 receptor expressed in HEK293 cell membrane at 10 uM incubated for 180 mins by microplate beta scintillation counting based radioligand inhibition assay relative to control
Lab note: anything with inhibition at or over 40% counts as 1; the rest go in 0.

Decide: inhibition of "Nc1ncnc2c1nc(CCc1ccccc1)n2[C@@H]1O[C@H](CO)[C@@H](O)[C@H]1O" >= 40%?
0

Decide: inhibition of "Nc1ncnc2c1ncn2[C@H]1C[C@H](O)[C@@H](CO)O1" >= 40%?
0

Decide: inhibition of "Nc1ncnc2c1nc(CCc1ccccc1)n2[C@H]1C[C@H](O)[C@@H](CO)O1" >= 40%?
1

Decide: inhibition of "Nc1ncnc2c1ncn2[C@@H]1O[C@H](CO)[C@@H](O)[C@H]1OCOCCCc1ccccc1" >= 40%?
0

Decide: inhibition of "Nc1nc(CCc2ccccc2)nc2c1ncn2[C@@H]1O[C@H](CO)[C@@H](O)[C@@H]1O" >= 40%?
1
